Test system: human liver carboxylesterase (hCE1) (Homo sapiens, UniProt P23141)
Sequence (P23141 18-567): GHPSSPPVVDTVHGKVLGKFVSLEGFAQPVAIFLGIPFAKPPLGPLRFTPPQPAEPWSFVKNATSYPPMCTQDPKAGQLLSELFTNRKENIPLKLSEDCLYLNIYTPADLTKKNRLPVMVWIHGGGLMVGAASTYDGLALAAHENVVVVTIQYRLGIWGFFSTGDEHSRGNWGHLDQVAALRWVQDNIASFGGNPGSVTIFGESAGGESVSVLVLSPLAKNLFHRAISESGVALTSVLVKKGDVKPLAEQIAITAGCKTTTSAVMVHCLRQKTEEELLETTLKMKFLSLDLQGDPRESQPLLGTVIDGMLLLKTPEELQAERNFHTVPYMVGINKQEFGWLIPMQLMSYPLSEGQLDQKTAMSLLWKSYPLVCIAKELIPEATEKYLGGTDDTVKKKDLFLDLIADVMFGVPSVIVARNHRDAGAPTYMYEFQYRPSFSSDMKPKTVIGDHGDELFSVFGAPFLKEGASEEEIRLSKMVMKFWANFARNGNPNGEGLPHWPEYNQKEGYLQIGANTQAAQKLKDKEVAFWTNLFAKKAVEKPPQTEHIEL
Test method notes: biochemical
Format: biochemical
Readout: Ki

In [3]: df
Out[3]:
                                   molecule  readout  measurement
0  O=C(C(=O)c1cc(Br)ccc1O)c1cc(Br)ccc1O [Compound 9]       Ki     > 100 µM
1  COc1ccc(C(=O)C(=O)c2ccc(OC)c([N+](=O)[O-])c2)cc1[N+](=O)[O-] [Compound 37]       Ki     > 100 µM
